experiment: NCI Yeast Anticancer Drug Screen. Data for the cln2 rad14 strain (AID 165);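 note: 0% = growth equal to vehicle treated cultures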; conditions: S. cerevisiae cln2 rad14 strain, at 50.0 µM, stronger effect = higher value
The panel holds about 79,000 compounds, 15% with a hit somewhere; the sample as a whole holds those more often.
Readout: growth inhibition (%)
Numbers only; they are read as %.

Worked cases, growth inhibition given:
Compound	Test result
O=C1CCC(=O)N1Cc1ccccc1N=[N+]([O-])c1ccccc1CN1C(=O)CCC1=O	-0.55
COc1cc(/C=N/NC(N)=S)cc(OC)c1	-35.9

Note to self: growth inhibition recorded for CC1=CC2=C(C(N)=O)C(=O)OC2(C)C(c2ccccc2)C1 (configuration not stated) was 7

Note to self: growth inhibition recorded for COc1ccc(C2OC(C)C(C)O2)cc1 (configuration not stated) was -42.6

* * *

test: NCI Yeast Anticancer Drug Screen. Data for the mec2-1 strain (AID 157); conditions: S. cerevisiae mec2-1 strain, at 50.0 µM, stronger effect = higher value
The panel holds about 79,000 compounds, 15% with a hit somewhere; the sample as a whole holds those more often.
compounds and their reported growth inhibition
Numbers only; they are read as %.

> print(dat)
                                    compound            readout  u  test.result
 1  COC(=O)C(O)c1ccc(C(C)C)cc1 (stereo unspecified)  growth inhibition  %        -18.6
 2  CCOC(=O)C1/C(=C\O)C(=O)c2cc(OC)c(OC)cc2C1c1ccc(OC)c(OC)c1 (stereo unspecified)  growth inhibition  %          0.9
 3  CC(O)(c1ccncc1)c1cc2ccccc2n1S(=O)(=O)c1ccccc1 (stereo unspecified)  growth inhibition  %         2.65
 4  N=C1N=Nc2nc(C(C(=O)c3cccc(O)c3)c3nc4n(c3O)C(=N)N=N4)c(O)n21 (stereo unspecified)  growth inhibition  %         23.9
 5                 O=C1c2ccccc2-c2ccc(I)cc21  growth inhibition  %         -1.7
 6  CCC(C)C(=O)OCC1(c2ccc(C)cc2OC(=O)C(C)C)CO1 (stereo unspecified)  growth inhibition  %        -2.45
 7  CCCCCCCCCC1OCC(COCC)O1 (stereo unspecified)  growth inhibition  %           -9
 8          CCOC(=O)C1=C(NC(C)=O)Sc2ccccc2C1  growth inhibition  %          6.6
 9       O=c1nc(/C=C/c2ccccc2Cl)cc2n1CCN2CCO  growth inhibition  %        -10.7
10          CC(=O)Oc1c(C(=O)O)cccc1-c1ccccc1  growth inhibition  %         -7.1

Note to self: growth inhibition recorded for CSC1=C(C#N)C(=O)N(c2ccc(C)cc2)C(=O)C1C#N (stereo unspecified) was 12.2

* * *

experiment: NCI Yeast Anticancer Drug Screen. Data for the sgs1 mgt1 strain (AID 161);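 note: 0% = growth of cultures given vehicle only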; settings: S. cerevisiae sgs1 mgt1 strain, at 50.0 µM, stronger effect = higher value
About 79,000 compounds went through this panel and 15% of them were active in at least one assay; those are over-represented in the sample as a whole.
compounds and their reported growth inhibition
Numbers only; they are read as %.

Note to self: growth inhibition recorded for CNc1ccc(C(=O)O)cc1C(F)(F)F was -6

Note to self: growth inhibition recorded for COc1ccc2c(c1)NC(C(C)C)=NS2(=O)=O was 17.4

Note to self: growth inhibition recorded for CCc1n[nH]c(=O)n1/N=C/c1ccccc1O was -5.75

Note to self: growth inhibition recorded for N#Cc1nnn2c1nc(N)c1c(Cl)cccc12 was -4.6

Note to self: growth inhibition recorded for N#CCCCCBr was -4.2

Note to self: growth inhibition recorded for CC(C)=CCN1c2ccccc2NC(=O)CC1C (configuration not stated) was -6.55
